Measured values drawn from the supplement of paper PMC10933113 for this set.

Test system: THP-1
Assay: CD54 surface expression induction over DMSO control (% over DMSO); higher = stronger dendritic cell activation
Settings: exposure time: 24 h
Readings of CD54 surface expression induction for the listed molecules
Provide a numeric answer; units are not to be included.

- Molecule: "CCCCOCN(C(=O)CCl)c1c(CC)cccc1CC [Butachlor] (10 µM)"
  CD54 surface expression induction: -3.73
- Molecule: "CCOP(=S)(OCC)Oc1cnc2ccccc2n1 [Quinalphos] (200 µM)"
  CD54 surface expression induction: -1.41
- Molecule: "CCC(C)(c1ccc(O)cc1)c1ccc(O)cc1 [Bisphenol B] (200 µM)"
  CD54 surface expression induction: 3.9

API: the following record is the query input.
Q: Supply measured CD54 surface expression induction of CN1C[C@H](C(=O)N[C@]2(C)O[C@@]3(O)[C@@H]4CCCN4C(=O)[C@H](Cc4ccccc4)N3C2=O)C=C2c3cccc4[nH]cc(c34)C[C@H]21 [Ergotamine D-tartrate*] (79 µM) in your reply.
A: 228

----------
Test system: THP-1
Test: CD54 surface expression induction over DMSO control (% over DMSO); higher = stronger dendritic cell activation
Details: exposure time: 24 h
Quick reference for CD54 surface expression induction among some compounds

Record excerpt, results attached:
- Compound: "COP(=S)(OC)Oc1ccc(SC)c(C)c1 [Fenthion] (100 µM)"
  CD54 surface expression induction: -7.55
- Compound: "Nc1ccc(N)cc1 [1,4-Benzenediamine] (10 µM)"
  CD54 surface expression induction: 30.8
- Compound: "N#C/C=C/C#N [Fumaronitrile] (10 µM)"
  CD54 surface expression induction: -10.2
- Compound: "O=C(N/N=C/c1ccc([N+](=O)[O-])o1)c1cc([N+](=O)[O-])cc([N+](=O)[O-])c1O [Nifursol] (200 µM)"
  CD54 surface expression induction: 24.5
- Compound: "Cl/C=C\\C[N+]12CN3CN(CN(C3)C1)C2 [Chloroallyl methenamine chloride] (10 µM)"
  CD54 surface expression induction: 3.14
- Compound: "[OH-].c1cc[c]([Sn+]([c]2ccccc2)[c]2ccccc2)cc1 [Triphenyltin hydroxide] (10 µM)"
  CD54 surface expression induction: 54.7
- Compound: "ClC1=C(Cl)C2(Cl)C3C(Cl)C(Cl)CC3C1(Cl)C2(Cl)Cl (centres undefined) [Chlordane] (200 µM)"
  CD54 surface expression induction: 27.9
- Compound: "Nc1ccc(Cl)cc1N [4-Chloro-1,2-diaminobenzene*] (200 µM)"
  CD54 surface expression induction: 233

Q: Give CD54 surface expression induction only, for CC(C)=CC1C(C(=O)OCc2coc(Cc3ccccc3)c2)C1(C)C (centres undefined) [Resmethrin] (200 µM) , using THP-1 data.
A: 19.8

----------
Tested on: THP-1
Assay: CD86 surface expression induction over DMSO control (% over DMSO); higher = stronger dendritic cell activation
Details: exposure time: 24 h
Measured metric: CD86 surface expression induction
Reply briefly: the number, and no unit.

Below, each entry is followed by its recorded CD86 surface expression induction result.
- Compound: "CN(C)c1ccc(N)cc1 [N,N-Dimethyl-p-phenylenediamine] (100 µM)"
  Measured number: 44.5
- Compound: "Cc1ccc(N=C=O)cc1N=C=O [Toluene-2,4-diisocyanate] (100 µM)"
  Measured number: 3.76
- Compound: "CN(C)S(=O)(=O)N(SC(F)(Cl)Cl)c1ccccc1 [Dichlofluanid] (10 µM)"
  Measured number: 88.1
- Compound: "CS/C(C)=N\\OC(=O)N(C)SN(C)C(=O)O/N=C(\\C)SC [Thiodicarb] (10 µM)"
  Measured number: -14.6

Q: Give the value of CD86 surface expression induction reported for the following: COP(=O)(OC)OC(Br)C(Cl)(Cl)Br (stereo not given) [Naled] (100 µM)
A: 30.5

Q: Retrieve CD86 surface expression induction measured for Cc1ccc2c(c1N)C(=O)c1ccccc1C2=O [1-Amino-2-methylanthraquinone] (100 µM) and print it.
A: 102

Q: Tell me its CD86 surface expression induction given O=C(CCl)c1ccccc1 [2-Chloroacetophenone] (100 µM) as the entry.
A: 8.54

Q: Please list CD86 surface expression induction recorded for the compound CC(C)(C)C(=O)CCl [1-Chloro-3,3-dimethyl-butan-2-one] (200 µM)
A: -2.11

Q: For the compound Cl/C=C\C[N+]12CN3CN(CN(C3)C1)C2 [Chloroallyl methenamine chloride] (10 µM) , report CD86 surface expression induction.
A: -4.14

Q: Provide one value: measured CD86 surface expression induction of c1ccc2sc(SNC3CCCCC3)nc2c1 [N-Cyclohexyl-2-benzothiazolesulfenamide] (100 µM)
A: 8.63

Q: Give recorded CD86 surface expression induction. CCC(C)(NC(=O)c1cc(Cl)c(C)c(Cl)c1)C(=O)CCl (stereo not given) [Zoxamide] (10 µM)
A: -5.9

----------
System: THP-1
Experiment: CD54 surface expression induction over DMSO control (% over DMSO); higher = stronger dendritic cell activation
Conditions: exposure time: 24 h
Short version: CD54 surface expression induction at least -3 is true, less is false.

- Molecule: "CCOC(=O)NC(=S)Nc1ccccc1NC(=S)NC(=O)OCC [Thiophanate] (100 µM)"
  Class: "true"

Q: Check if CD54 surface expression induction >= -3 (inclusive). Item: O=C(O)c1ccc(=O)[nH]c1 [6-Hydroxynicotinic acid] (100 µM)
A: false

Q: Please check the record CCS(=O)(=O)CCSP(=O)(OC)OC [Demeton-S-methylsulphon] (10 µM) and state if its CD54 surface expression induction is at or above -3.
A: false

Q: Exam item: decide whether the reported CD54 surface expression induction for N#CCC#N [Propanedinitrile] (199 µM) is at least -3.
A: true

Q: API: above_or_equal(metric=CD54 surface expression induction, cutoff=-3) for item CC(COc1ccc(Oc2ccccc2)cc1)Oc1ccccn1 (stereo not given) [Pyriproxyfen] (200 µM)
A: false

----------
Tested on: THP-1
Assay: CD86 surface expression induction over DMSO control (% over DMSO); higher = stronger dendritic cell activation
Details: exposure time: 24 h
Structures can show the parent of a compound that is named as a salt.
Measured metric: CD86 surface expression induction
Number, no unit, nothing else.

- Compound: "NCCc1ccc(O)cc1 [Tyramine] (100 µM)"
  CD86 surface expression induction: -4.16
- Compound: "O=[N+]([O-])c1ccc(Oc2ccc(C(F)(F)F)cc2[N+](=O)[O-])cc1 [Fluorodifen] (10 µM)"
  CD86 surface expression induction: -11.9

Q: Recall the reported CD86 surface expression induction of O=C1OC(CCN2CCCCC2)OC1(c1ccccc1)c1ccccc1 (centres undefined) [Pipoxolan hydrochloride] (100 µM) when tested on THP-1.
A: 98.2

Q: State CD86 surface expression induction on THP-1. Entry: Nc1ccc2ccccc2c1 [2-Naphthylamine] (100 µM)
A: 68.7

Q: Specify the recorded CD86 surface expression induction for CCCCNC(=O)OCC#CI [Carbamic acid, butyl-, 3-iodo-2-propynyl ester] (10 µM) , system: THP-1.
A: -9.06

Q: Write down measured CD86 surface expression induction (THP-1) for this compound. CC(C)=CC1C(C(=O)OCc2coc(Cc3ccccc3)c2)C1(C)C (centres undefined) [Resmethrin] (200 µM)
A: 16.4

Q: # return CD86 surface expression induction for CCOP(=S)(OCC)SC(CCl)N1C(=O)c2ccccc2C1=O (centres undefined) [Dialifor] (100 µM) , test system: THP-1
A: 0.69

Q: # assay system THP-1: give CD86 surface expression induction of O=[N+]([O-])c1c(Cl)c(Cl)c(Cl)c(Cl)c1Cl [Pentachloronitrobenzene] (100 µM)
A: 55.3

----------
Test system: THP-1
Assay: CD86 surface expression induction over DMSO control (% over DMSO); higher = stronger dendritic cell activation
Conditions: exposure time: 24 h
Where a name gives a salt, the structure may show the parent alone.
Label yes (1) when CD86 surface expression induction >= 0.6; otherwise no (0).

Take a look at these entries with their results.
- Compound: "COc1ccc(O)c(C(C)(C)C)c1 [2-tert-Butyl-4-methoxyphenol] (200 µM)"
  Class: "no (0)"
- Compound: "Nc1ccc(-c2ccccc2)cc1 [4-Biphenylamine hydrochloride] (100 µM)"
  Class: "no (0)"
- Compound: "CCOC(=O)CC(SP(=S)(OC)OC)C(=O)OCC (stereo unspecified) [Malathion] (100 µM)"
  Class: "no (0)"
- Compound: "CCOCN(C(=O)CCl)c1c(C)cccc1CC [Acetochlor] (10 µM)"
  Class: "yes (1)"
- Compound: "COc1ccccc1N [2-Methoxyaniline hydrochloride] (100 µM)"
  Class: "no (0)"

Q: Check if CD86 surface expression induction >= 0.6 (inclusive). Item: C[C@@H]1O[C@@H](O[C@H]2C[C@@H](O)[C@]3(CO)[C@H]4[C@H](O)C[C@]5(C)[C@@H](C6=CC(=O)OC6)CC[C@]5(O)[C@@H]4CC[C@]3(O)C2)[C@H](O)[C@H](O)[C@H]1O [Ouabain] (10 µM)
A: yes (1)

Q: Hello, I need to know if CC(C)OC(=S)S [Proxan-sodium] (10 µM) has measured CD86 surface expression induction not below 0.6. Thanks!
A: no (0)

Q: Is it the case that CC(C)Nc1ccc(Nc2ccccc2)cc1 [N-Isopropyl-N'-phenyl-p-phenylenediamine] (10 µM) has CD86 surface expression induction reaching or exceeding 0.6?
A: yes (1)

Q: I'd appreciate it if you could say whether COc1ccc(C(c2ccc(OC)cc2)C(Cl)(Cl)Cl)cc1 [Methoxychlor] (200 µM) has CD86 surface expression induction at least equal to 0.6.
A: yes (1)

Q: I'd appreciate it if you could say whether O=C(CCl)CCl [1,3-Dichloropropanone] (200 µM) has CD86 surface expression induction at least equal to 0.6.
A: yes (1)
